target: TrkB (Homo sapiens, UniProt Q16620)
Sequence (Q16620 32-822, species assumed): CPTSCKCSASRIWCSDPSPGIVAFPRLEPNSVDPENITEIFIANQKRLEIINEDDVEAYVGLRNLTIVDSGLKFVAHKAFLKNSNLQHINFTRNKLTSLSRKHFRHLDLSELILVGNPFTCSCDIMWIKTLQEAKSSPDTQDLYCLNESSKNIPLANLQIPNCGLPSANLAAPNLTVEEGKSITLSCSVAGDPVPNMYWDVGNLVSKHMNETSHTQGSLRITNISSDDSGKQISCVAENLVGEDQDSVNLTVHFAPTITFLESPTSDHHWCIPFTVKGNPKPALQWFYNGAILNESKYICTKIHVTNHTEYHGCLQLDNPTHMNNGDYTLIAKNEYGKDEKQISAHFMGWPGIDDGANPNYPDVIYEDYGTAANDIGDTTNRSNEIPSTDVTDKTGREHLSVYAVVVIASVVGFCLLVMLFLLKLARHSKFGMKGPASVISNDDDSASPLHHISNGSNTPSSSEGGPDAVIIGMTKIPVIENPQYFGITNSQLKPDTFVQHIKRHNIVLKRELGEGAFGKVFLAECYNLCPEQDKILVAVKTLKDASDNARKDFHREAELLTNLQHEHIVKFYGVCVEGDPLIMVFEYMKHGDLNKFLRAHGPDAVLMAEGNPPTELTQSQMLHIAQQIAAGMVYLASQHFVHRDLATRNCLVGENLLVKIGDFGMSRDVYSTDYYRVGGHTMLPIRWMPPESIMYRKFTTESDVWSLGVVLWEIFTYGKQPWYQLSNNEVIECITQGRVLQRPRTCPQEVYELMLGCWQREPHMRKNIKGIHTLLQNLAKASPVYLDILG
pIC50: −log10 of the molar value.
testReadout: pIC50

What pIC50 value was documented for this compound, CC[C@@H]1CN(C(=O)NCC(F)(F)F)C[C@@H]1c1cnc2cnc3[nH]ccc3n12 [upadacitinib] ?
< 5.00

====

biological target: STK16 (Homo sapiens, UniProt O75716)
Sequence (O75716 whole entry, species assumed): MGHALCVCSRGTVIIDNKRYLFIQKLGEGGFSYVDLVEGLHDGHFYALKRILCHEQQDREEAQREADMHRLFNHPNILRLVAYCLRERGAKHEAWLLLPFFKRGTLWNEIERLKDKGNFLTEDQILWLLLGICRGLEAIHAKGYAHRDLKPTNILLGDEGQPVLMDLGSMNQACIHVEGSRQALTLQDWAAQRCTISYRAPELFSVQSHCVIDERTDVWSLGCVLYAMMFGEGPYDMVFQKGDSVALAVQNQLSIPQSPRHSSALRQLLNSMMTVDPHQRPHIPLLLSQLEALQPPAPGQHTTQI
testReadout: pIC50
Convention used: pIC50 is expressed as -log10 of the molar concentration.

What pIC50 value was documented for this compound, CC[C@@H]1CN(C(=O)NCC(F)(F)F)C[C@@H]1c1cnc2cnc3[nH]ccc3n12 ?
5.01

====

molecular target: MEK1 (Homo sapiens)
Sequence (Q02750 whole entry, species assumed): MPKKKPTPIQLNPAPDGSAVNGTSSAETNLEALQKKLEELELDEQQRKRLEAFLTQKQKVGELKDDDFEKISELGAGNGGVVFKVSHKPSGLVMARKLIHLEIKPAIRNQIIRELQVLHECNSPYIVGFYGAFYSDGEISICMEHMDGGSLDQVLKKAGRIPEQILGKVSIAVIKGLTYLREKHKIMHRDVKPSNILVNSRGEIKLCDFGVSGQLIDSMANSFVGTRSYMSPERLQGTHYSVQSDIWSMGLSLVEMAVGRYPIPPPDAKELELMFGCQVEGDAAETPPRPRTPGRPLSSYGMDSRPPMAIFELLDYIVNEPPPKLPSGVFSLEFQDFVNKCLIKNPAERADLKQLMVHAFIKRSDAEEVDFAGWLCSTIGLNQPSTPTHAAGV
pIC50: −log10 of the molar value.
testReadout: pIC50

For the record CC[C@@H]1CN(C(=O)NCC(F)(F)F)C[C@@H]1c1cnc2cnc3[nH]ccc3n12 , what value of pIC50 is listed for MEK1 (Homo sapiens)?
< 5.00

====

target: UniProtKB Q12851
Sequence (Q12851 whole entry, species assumed): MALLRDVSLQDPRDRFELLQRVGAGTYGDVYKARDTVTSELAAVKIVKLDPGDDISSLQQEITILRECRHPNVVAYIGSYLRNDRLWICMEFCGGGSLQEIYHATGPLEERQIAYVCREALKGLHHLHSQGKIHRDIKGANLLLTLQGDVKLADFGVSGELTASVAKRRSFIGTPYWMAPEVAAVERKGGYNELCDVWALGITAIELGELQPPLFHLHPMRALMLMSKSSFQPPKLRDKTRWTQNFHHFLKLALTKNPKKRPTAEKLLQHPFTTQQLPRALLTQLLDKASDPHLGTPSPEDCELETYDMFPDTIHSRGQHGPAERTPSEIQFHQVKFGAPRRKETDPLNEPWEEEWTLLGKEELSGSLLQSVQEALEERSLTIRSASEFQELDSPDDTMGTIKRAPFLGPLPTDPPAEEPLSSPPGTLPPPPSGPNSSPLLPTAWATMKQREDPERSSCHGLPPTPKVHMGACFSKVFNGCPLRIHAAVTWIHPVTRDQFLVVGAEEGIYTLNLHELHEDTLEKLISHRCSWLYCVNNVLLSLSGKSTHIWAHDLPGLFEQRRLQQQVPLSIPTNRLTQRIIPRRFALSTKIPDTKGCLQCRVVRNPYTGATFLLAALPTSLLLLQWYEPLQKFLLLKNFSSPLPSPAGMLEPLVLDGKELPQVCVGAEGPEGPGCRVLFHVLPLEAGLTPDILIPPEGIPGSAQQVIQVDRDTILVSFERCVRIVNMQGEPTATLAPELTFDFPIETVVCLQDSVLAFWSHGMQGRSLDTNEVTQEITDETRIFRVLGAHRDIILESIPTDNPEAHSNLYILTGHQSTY
testReadout: IC50

What IC50 value was documented for this molecule, CC[C@@H]1CN(C(=O)NCC(F)(F)F)C[C@@H]1c1cnc2cnc3[nH]ccc3n12 [upadacitinib] ?
> 10 µM

====

target: TrkC (Homo sapiens, UniProt Q16288)
Sequence (Q16288 32-839, species assumed): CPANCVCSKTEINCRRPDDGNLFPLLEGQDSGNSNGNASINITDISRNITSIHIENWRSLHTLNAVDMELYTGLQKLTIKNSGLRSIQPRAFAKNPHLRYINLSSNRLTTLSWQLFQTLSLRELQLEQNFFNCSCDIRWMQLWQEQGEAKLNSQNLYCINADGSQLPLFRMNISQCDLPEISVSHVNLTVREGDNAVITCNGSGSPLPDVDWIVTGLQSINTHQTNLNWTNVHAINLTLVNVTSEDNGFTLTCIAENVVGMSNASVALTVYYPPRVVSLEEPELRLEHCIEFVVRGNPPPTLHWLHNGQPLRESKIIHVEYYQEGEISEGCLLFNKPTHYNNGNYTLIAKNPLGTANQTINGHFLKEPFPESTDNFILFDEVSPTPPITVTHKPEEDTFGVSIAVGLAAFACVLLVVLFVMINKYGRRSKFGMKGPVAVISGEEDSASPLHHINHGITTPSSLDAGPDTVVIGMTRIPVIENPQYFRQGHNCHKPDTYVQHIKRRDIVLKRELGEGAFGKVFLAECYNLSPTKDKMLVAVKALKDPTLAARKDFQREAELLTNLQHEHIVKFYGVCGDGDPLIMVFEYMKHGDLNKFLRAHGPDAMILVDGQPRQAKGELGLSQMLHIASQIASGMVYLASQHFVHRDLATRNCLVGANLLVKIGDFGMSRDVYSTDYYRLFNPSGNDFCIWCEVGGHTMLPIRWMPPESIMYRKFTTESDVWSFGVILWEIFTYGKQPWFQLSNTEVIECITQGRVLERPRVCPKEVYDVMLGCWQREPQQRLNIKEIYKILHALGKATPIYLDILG
pIC50: −log10 of the molar value.
testReadout: pIC50

What pIC50 value was documented for this compound, CC[C@@H]1CN(C(=O)NCC(F)(F)F)C[C@@H]1c1cnc2cnc3[nH]ccc3n12 ?
< 5.00

====

target: PDGFRA V561D (Homo sapiens, UniProt P16234, V561D); experiment: trFRET binding kinome profiling
pIC50: −log10 of the molar value.
testReadout: pIC50

What pIC50 value was documented for this compound, CC[C@@H]1CN(C(=O)NCC(F)(F)F)C[C@@H]1c1cnc2cnc3[nH]ccc3n12 ?
< 5.00

====

Biological target: KDR (Homo sapiens)
Assay: trFRET binding kinome profiling
Experimental: JAK activity assays using isolated kinase domains in the presence of 0.1 mM ATP and trFRET kinome profiling were conducted as described previously (17).
pIC50: −log10 of the molar value.
testReadout: pIC50

For the record CC[C@@H]1CN(C(=O)NCC(F)(F)F)C[C@@H]1c1cnc2cnc3[nH]ccc3n12 [upadacitinib] , what value of pIC50 is listed for KDR (Homo sapiens)?
< 5.82

====

molecular target: IGF1R (Homo sapiens, UniProt P08069)
pIC50: −log10 of the molar value.
testReadout: pIC50

For the record CC[C@@H]1CN(C(=O)NCC(F)(F)F)C[C@@H]1c1cnc2cnc3[nH]ccc3n12 , what value of pIC50 is listed for IGF1R (Homo sapiens, UniProt P08069)?
< 5.00

====

target: EGFR (Homo sapiens, UniProt P00533)
Sequence (P00533 25-1210, species assumed): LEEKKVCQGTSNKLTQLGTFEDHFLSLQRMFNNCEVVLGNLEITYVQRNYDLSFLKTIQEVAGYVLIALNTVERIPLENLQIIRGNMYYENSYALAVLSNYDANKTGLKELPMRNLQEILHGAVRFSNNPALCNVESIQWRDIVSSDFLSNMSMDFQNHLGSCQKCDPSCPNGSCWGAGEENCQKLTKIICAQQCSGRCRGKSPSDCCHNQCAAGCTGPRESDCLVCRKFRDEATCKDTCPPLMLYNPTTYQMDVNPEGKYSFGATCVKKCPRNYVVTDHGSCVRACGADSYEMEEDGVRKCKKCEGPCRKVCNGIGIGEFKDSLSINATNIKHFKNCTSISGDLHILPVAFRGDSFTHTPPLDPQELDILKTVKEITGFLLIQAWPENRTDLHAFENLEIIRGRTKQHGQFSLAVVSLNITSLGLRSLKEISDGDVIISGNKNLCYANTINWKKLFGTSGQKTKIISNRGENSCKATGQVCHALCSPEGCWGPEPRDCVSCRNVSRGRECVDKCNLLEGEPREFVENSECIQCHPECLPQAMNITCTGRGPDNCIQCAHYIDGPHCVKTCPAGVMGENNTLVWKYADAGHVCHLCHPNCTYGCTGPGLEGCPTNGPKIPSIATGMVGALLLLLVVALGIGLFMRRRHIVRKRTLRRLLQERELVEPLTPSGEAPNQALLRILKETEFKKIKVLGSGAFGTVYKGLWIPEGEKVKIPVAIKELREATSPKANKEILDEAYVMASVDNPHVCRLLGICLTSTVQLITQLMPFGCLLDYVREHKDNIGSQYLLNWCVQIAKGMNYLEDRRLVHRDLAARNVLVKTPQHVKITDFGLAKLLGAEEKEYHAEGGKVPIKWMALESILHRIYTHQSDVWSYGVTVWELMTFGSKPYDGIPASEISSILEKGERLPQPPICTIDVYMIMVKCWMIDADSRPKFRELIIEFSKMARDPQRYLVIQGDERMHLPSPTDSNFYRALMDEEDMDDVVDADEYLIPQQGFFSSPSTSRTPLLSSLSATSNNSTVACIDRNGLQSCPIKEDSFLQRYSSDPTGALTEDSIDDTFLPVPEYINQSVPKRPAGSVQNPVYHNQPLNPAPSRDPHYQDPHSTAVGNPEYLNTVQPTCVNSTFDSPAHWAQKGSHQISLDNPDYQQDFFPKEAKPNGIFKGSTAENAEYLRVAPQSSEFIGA
testReadout: IC50

What IC50 value was documented for this compound, CC[C@@H]1CN(C(=O)NCC(F)(F)F)C[C@@H]1c1cnc2cnc3[nH]ccc3n12 ?
> 10 µM

====

biological target: UniProt P31749
Sequence (P31749 whole entry, species assumed): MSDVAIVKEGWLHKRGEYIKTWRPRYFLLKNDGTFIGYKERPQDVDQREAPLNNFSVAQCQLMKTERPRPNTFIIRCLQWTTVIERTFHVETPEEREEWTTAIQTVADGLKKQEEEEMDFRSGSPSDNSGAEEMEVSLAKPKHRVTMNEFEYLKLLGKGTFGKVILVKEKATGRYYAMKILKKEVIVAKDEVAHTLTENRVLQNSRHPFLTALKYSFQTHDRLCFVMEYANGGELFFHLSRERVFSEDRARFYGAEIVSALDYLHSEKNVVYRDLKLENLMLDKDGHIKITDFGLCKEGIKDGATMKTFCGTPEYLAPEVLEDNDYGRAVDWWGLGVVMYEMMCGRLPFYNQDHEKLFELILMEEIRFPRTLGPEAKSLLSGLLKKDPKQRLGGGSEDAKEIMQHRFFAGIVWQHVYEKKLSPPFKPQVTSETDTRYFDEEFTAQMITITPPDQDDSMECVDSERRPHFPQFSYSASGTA
pIC50: −log10 of the molar value.
testReadout: pIC50

What pIC50 value was documented for this compound, CC[C@@H]1CN(C(=O)NCC(F)(F)F)C[C@@H]1c1cnc2cnc3[nH]ccc3n12 [upadacitinib] ?
< 5.00

====

molecular target: InsR (Homo sapiens, UniProt P06213)
testReadout: IC50

For the record CC[C@@H]1CN(C(=O)NCC(F)(F)F)C[C@@H]1c1cnc2cnc3[nH]ccc3n12 , what value of IC50 is listed for InsR (Homo sapiens, UniProt P06213)?
> 10 µM
